target: SMN Tudor domain (Homo sapiens); assay: AlphaScreen, SMN Tudor domain / sDMA-peptide interaction
Sequence (Q16637 84-147): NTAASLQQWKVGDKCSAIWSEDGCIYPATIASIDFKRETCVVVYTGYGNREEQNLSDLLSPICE
pIC50: −log10 of the molar value.
Form field: pIC50 (one value per entry).
endpoint.label: pIC50

- mol.smiles: "CN(C)S(=O)(=O)c1ccc(C(=O)Nc2nc(-c3ccncc3)cs2)cc1"
  qualifying.sign: "="
  value.measured: 5.52
- mol.smiles: "O=C(Nc1nc(-c2ccccn2)cs1)c1ccc(S(=O)(=O)N2CCOCC2)cc1"
  qualifying.sign: "="
  value.measured: 6.19
- mol.smiles: "O=C(Nc1nc(-c2ccccn2)cs1)c1ccc(-n2cnnn2)cc1"
  qualifying.sign: "="
  value.measured: 5.91
- mol.smiles: "Cc1ccc(C(=O)Nc2nc(-c3ccccn3)cs2)o1"
  qualifying.sign: "="
  value.measured: 6.05
- mol.smiles: "O=C(Nc1nc(-c2cccs2)cs1)c1ccc(S(=O)(=O)N2CCCC2)cc1"
  qualifying.sign: "<"
  value.measured: 4.30
- mol.smiles: "O=C(Nc1nc(-c2ccccn2)cs1)C1CC1"
  qualifying.sign: "="
  value.measured: 5.53
- mol.smiles: "Cc1sc(NC(=O)c2ccc(S(=O)(=O)N(C)C)cc2)nc1-c1ccccn1"
  qualifying.sign: "="
  value.measured: 5.90
- mol.smiles: "CCc1sc(NC(=O)c2ccc(S(=O)(=O)N(C)C)cc2)nc1-c1ccccn1"
  qualifying.sign: "="
  value.measured: 5.45
- mol.smiles: "CCN(CC)S(=O)(=O)c1ccc(C(=O)Nc2nc(-c3cccnc3)cs2)cc1"
  qualifying.sign: "<"
  value.measured: 4.30
- mol.smiles: "O=S(=O)(Nc1nc(-c2ccccn2)cs1)c1ccccc1"
  qualifying.sign: "="
  value.measured: 5.59
